Molecular target: PDE10A (Homo sapiens (Human), UniProt Q9Y233)
Sequence (Q9Y233 whole entry): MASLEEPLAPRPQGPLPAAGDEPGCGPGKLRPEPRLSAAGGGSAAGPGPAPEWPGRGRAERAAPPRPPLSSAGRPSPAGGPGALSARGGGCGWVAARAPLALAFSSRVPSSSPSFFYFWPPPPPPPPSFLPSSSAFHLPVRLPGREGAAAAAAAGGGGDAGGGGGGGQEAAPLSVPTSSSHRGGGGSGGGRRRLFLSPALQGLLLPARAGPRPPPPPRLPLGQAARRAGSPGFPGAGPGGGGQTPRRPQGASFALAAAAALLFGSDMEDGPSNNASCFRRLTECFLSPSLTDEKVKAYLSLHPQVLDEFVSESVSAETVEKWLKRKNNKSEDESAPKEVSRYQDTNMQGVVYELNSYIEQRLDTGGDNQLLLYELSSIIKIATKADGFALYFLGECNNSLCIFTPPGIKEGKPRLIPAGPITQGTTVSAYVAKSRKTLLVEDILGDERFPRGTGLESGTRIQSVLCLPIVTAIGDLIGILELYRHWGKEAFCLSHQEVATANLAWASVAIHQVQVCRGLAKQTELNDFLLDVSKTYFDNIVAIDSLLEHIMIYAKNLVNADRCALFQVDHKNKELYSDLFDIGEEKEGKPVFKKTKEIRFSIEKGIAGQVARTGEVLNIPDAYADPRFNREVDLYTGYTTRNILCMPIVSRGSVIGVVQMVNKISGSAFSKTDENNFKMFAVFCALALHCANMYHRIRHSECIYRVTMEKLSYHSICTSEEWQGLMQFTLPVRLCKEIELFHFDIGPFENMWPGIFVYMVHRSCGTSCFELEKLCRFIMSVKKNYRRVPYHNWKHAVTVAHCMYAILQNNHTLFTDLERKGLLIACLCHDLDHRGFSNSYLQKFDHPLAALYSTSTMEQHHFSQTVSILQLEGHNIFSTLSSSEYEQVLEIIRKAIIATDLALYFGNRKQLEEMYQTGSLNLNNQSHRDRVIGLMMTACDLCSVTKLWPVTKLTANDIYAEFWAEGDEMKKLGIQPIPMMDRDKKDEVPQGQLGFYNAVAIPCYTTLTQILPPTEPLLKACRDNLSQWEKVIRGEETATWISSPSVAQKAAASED
Assay: Measurement of PDE10A inhibitory activity-2 (PDE10A fraction prepared from MOLT-4 cells)
Format: biochemical
Conditions: PDE10A fraction from MOLT-4 cells (peak around 250 mM NaCl)
Counter-ions that a name gives are not always drawn.
Binary call on IC50 with cut-off 0.7 nM: strictly below means t, and equality or higher means f.

[in] API: query returns whether the compound falls strictly under 0.7 nM in IC50. Query: COCc1ccc(C(C)=O)c2sc(C(=O)Nc3cc(CN4CCOCC4)c4ccccc4n3)c(C)c12 [Example 44]
[out] f

[in] API: query returns whether the compound falls strictly under 0.7 nM in IC50. Query: COCc1ccc(C(C)=O)c2sc(C(=O)Nc3ccc4c(C(=O)N(C)C)cccc4n3)c(C)c12 [Example 97]
[out] t

[in] API: query returns whether the compound falls strictly under 0.7 nM in IC50. Query: CCCCC(=O)c1cccc2c(C)c(C(=O)Nc3cc(C(C)(C)O)c4ccccc4n3)sc12 [Example 20]
[out] f

[in] API: query returns whether the compound falls strictly under 0.7 nM in IC50. Query: COCc1ccc(C(C)=O)c2sc(C(=O)Nc3ccc4c(COC(=O)[C@H](C)N)cccc4n3)c(C)c12 [Example 86]
[out] f

[in] API: query returns whether the compound falls strictly under 0.7 nM in IC50. Query: CCOCc1ccc(C(C)=O)c2sc(C(=O)Nc3cc(C(C)(C)O)c4ccccc4n3)c(C)c12 [Example 29]
[out] f

[in] API: query returns whether the compound falls strictly under 0.7 nM in IC50. Query: COCc1ccc(C(C)=O)c2sc(C(=O)Nc3ccc4c(COC(=O)CCC(=O)O)cccc4n3)c(C)c12 [Example 89]
[out] t

[in] API: query returns whether the compound falls strictly under 0.7 nM in IC50. Query: COCc1ccc(C(C)=O)c2sc(C(=O)Nc3ccc4c(C(=O)N5CC(F)C5)cccc4n3)c(C)c12 [Example 99]
[out] t

[in] API: query returns whether the compound falls strictly under 0.7 nM in IC50. Query: COCc1ccc(C(C)=O)c2sc(C(=O)Nc3ccc4c(COC(=O)[C@@H](N)CO)cccc4n3)c(C)c12 [Example 91]
[out] f

[in] API: query returns whether the compound falls strictly under 0.7 nM in IC50. Query: CCc1c(C(=O)Nc2cc(CN3CC[C@@H](O)C3)c3ccccc3n2)sc2c(C(C)=O)ccc(COC)c12 [Example 42]
[out] f

[in] API: query returns whether the compound falls strictly under 0.7 nM in IC50. Query: [2H]C([2H])([2H])OCc1ccc(C(C)=O)c2sc(C(=O)Nc3ccc4c(C(=O)N5CC(OC)C5)cccc4n3)c(C)c12 [Example 121]
[out] t

[in] API: query returns whether the compound falls strictly under 0.7 nM in IC50. Query: COCc1ccc(C(C)=O)c2sc(C(=O)Nc3ccc4c(C(=O)N5CC(F)(F)C5)cccc4n3)c(C)c12 [Example 100]
[out] t

[in] API: query returns whether the compound falls strictly under 0.7 nM in IC50. Query: CC(=O)c1ccc(COC(C)C)c2c(C)c(C(=O)Nc3cc(C(C)(C)O)c4ccccc4n3)sc12 [Example 31]
[out] f

[in] API: query returns whether the compound falls strictly under 0.7 nM in IC50. Query: COCc1ccc(C(C)=O)c2sc(C(=O)Nc3cc(CN4CCC(F)CC4)c4ccccc4n3)c(C)c12 [Example 46]
[out] t

[in] API: query returns whether the compound falls strictly under 0.7 nM in IC50. Query: [2H]C([2H])([2H])OCc1ccc(C(C)=O)c2sc(C(=O)Nc3ccc4c(COC)cccc4n3)c(C)c12 [Example 118]
[out] f

[in] API: query returns whether the compound falls strictly under 0.7 nM in IC50. Query: COCc1ccc(C(C)=O)c2sc(C(=O)Nc3ccc4c(CN5CC[C@H](O)C5)cccc4n3)c(C)c12 [Example 63, dihydrochloride]
[out] f

* * *

System: Male C57BL/6 Cr mice
Experiment: Test on suppression of phencyclidine-induced hyperlocomotion in mice
Format: in vivo, mouse
Details: locomotor activity, test compound 10 mg/kg oral, phencyclidine 5 mg/kg s.c. approx. 1 hour later, measured for 1 hour
Assign % inhibition to each entry below.
Enter your answer as a number in %; do not include the unit.

[in] Kindly state the measured % inhibition obtained for COCc1ccc(C(C)=O)c2sc(C(=O)Nc3ccc4c(C(=O)N5CC(OC)C5)cccc4n3)c(C)c12 with Male C57BL/6 Cr mice.
[out] 120

[in] Kindly state the measured % inhibition obtained for COCc1cccc2nc(NC(=O)c3sc4c(C(C)=O)ccc(COC)c4c3C)ccc12 [Example 69, methanesulfonate] with Male C57BL/6 Cr mice.
[out] 81

[in] Kindly state the measured % inhibition obtained for Br.COCc1ccc(C(C)=O)c2sc(C(=O)Nc3ccc4c(CS(C)(=O)=O)cccc4n3)c(C)c12 with Male C57BL/6 Cr mice.
[out] 57

[in] Kindly state the measured % inhibition obtained for COCc1cccc2nc(NC(=O)c3sc4c(C(C)=O)ccc(COC)c4c3C)ccc12.Cl with Male C57BL/6 Cr mice.
[out] 121

[in] Kindly state the measured % inhibition obtained for COCc1ccc(C(C)=O)c2sc(C(=O)Nc3ccc4c(C(=O)N5CC(OC)C5)cccc4n3)c(C)c12.Cc1ccc(S(=O)(=O)O)cc1 with Male C57BL/6 Cr mice.
[out] 87

[in] Kindly state the measured % inhibition obtained for COCc1ccc(C(C)=O)c2sc(C(=O)Nc3ccc4c(CO)cccc4n3)c(C)c12.Cc1ccc(S(=O)(=O)O)cc1 with Male C57BL/6 Cr mice.
[out] 122

[in] Kindly state the measured % inhibition obtained for COCc1ccc(C(C)=O)c2sc(C(=O)Nc3ccc4c(CO)cccc4n3)c(C)c12.Cl with Male C57BL/6 Cr mice.
[out] 96

* * *

Biological target: PDE10A (Homo sapiens (Human), UniProt Q9Y233)
Assay: Measurement of PDE10A inhibitory activity-2 (PDE10A fraction prepared from MOLT-4 cells)
Format: biochemical
Conditions: PDE10A fraction from MOLT-4 cells (peak around 250 mM NaCl)
Structures can show the parent of a compound that is named as a salt.
Assign pIC50 to each entry below.
Please keep in mind that pIC50 is minus log10 of the molar concentration; only the number is needed.

[in] Returns the measured pIC50 for the input compound. Input: COCc1ccc(C(C)=O)c2sc(C(=O)Nc3cc(CN4CCC(F)(F)C4)c4ccccc4n3)c(C)c12
[out] 9.07

[in] Returns the measured pIC50 for the input compound. Input: COCc1ccc(C(C)=O)c2sc(C(=O)Nc3cc(CN4CC[C@@H](F)C4)c4ccccc4n3)c(C)c12
[out] 9.30

[in] Returns the measured pIC50 for the input compound. Input: CCOCc1cccc2nc(NC(=O)c3sc4c(C(C)=O)ccc(COC)c4c3C)ccc12
[out] 8.80

[in] Returns the measured pIC50 for the input compound. Input: COCc1ccc(C(C)=O)c2sc(C(=O)Nc3ccc4c(CS(C)(=O)=O)cccc4n3)c(C)c12 [Example 110, hydrochloride]
[out] 9.64

[in] Returns the measured pIC50 for the input compound. Input: COCCOCc1cccc2nc(NC(=O)c3sc4c(C(C)=O)ccc(COC)c4c3C)ccc12 [Example 71, hydrochloride]
[out] 9.12

[in] Returns the measured pIC50 for the input compound. Input: COCc1ccc(C(C)=O)c2sc(C(=O)Nc3cc(CN(C)CCO)c4ccccc4n3)c(C)c12 [Example 34, dihydrochloride]
[out] 9.03

[in] Returns the measured pIC50 for the input compound. Input: CC(=O)c1ccc(CO)c2c(C)c(C(=O)Nc3ccc4c(CO)cccc4n3)sc12
[out] 8.68

[in] Returns the measured pIC50 for the input compound. Input: COCc1ccc(C(C)=O)c2sc(C(=O)Nc3cc(CN4CC[C@H](O)C4)c4ccccc4n3)c(C)c12
[out] 9.64

[in] Returns the measured pIC50 for the input compound. Input: CC(=O)c1ccc(C(C)=O)c2c(C)c(C(=O)Nc3cc(C(C)(C)O)c4ccccc4n3)sc12
[out] 8.59

[in] Returns the measured pIC50 for the input compound. Input: CC(=O)c1ccc(C(C)=O)c2c(C)c(C(=O)Nc3cc(CN(C)C(C)=O)c4ccccc4n3)sc12
[out] 8.64

[in] Returns the measured pIC50 for the input compound. Input: COCc1ccc(C(C)=O)c2sc(C(=O)Nc3ccc4c(C(C)=O)cccc4n3)c(C)c12
[out] 9.04

[in] Returns the measured pIC50 for the input compound. Input: COCc1ccc(C(C)=O)c2sc(C(=O)Nc3ccc4c(C)cccc4n3)c(C)c12
[out] 8.80

[in] Returns the measured pIC50 for the input compound. Input: COC1CN(C(=O)c2cccc3nc(NC(=O)c4sc5c(C(C)=O)ccc(CO)c5c4C)ccc23)C1
[out] 9.05

[in] Returns the measured pIC50 for the input compound. Input: [2H]C([2H])([2H])OC1CN(C(=O)c2cccc3nc(NC(=O)c4sc5c(C(C)=O)ccc(COC)c5c4C)ccc23)C1
[out] 9.54

[in] Returns the measured pIC50 for the input compound. Input: COCc1ccc(C(C)=O)c2sc(C(=O)Nc3ccc4c(COP(=O)(O)O)cccc4n3)c(C)c12 [Example 87, phosphate hydrochloride]
[out] 9.22
